Molecular target: Mitogen-activated protein kinase 1 (Homo sapiens) (UniProt P28482)
Sequence (P28482 whole entry): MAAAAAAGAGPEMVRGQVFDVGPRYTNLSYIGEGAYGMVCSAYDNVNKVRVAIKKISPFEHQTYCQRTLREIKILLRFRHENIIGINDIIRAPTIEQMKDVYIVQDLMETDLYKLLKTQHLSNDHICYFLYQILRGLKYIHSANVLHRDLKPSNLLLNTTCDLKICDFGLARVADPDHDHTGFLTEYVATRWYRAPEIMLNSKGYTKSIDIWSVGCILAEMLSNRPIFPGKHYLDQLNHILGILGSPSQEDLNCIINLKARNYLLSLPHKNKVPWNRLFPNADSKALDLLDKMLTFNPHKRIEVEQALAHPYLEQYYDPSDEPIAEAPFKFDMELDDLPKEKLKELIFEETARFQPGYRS
Details: Compound concentration 20.0 uM, Protein concentration 2.0 uM, Result type QC Liability
Description: Thermal Shift Assay. Domain: start/stop: M1-S360
Label criterion met when ΔTm >= 0.5 °C; otherwise criterion not met.

Query smiles: CC(=O)c1c(C)c2cnc(Nc3ccn(C)n3)nc2n(C2CCCC2)c1=O
Class: criterion not met

Query smiles: N=C(N)Nc1cc(C2CCNCC2)cc(C(F)(F)F)c1
Class: criterion not met

Query smiles: CC[C@@H](Nc1c(C#N)c(-c2ccc(-c3cccc(C)c3F)cc2)nc2cnccc12)C(=O)O
Class: criterion not met

Kindly determine if ΔTm recorded for C[C@@H]1Cc2c([nH]c3ccccc23)[C@@H](c2c(F)cc(/C=C/C(=O)O)cc2F)N1CC(C)(C)F is above or exactly 0.5 °C.
criterion met

###

# reported ΔTm; entries follow
Molecular target: Tyrosine-protein kinase ABL1 (Homo sapiens) (UniProt P00519)
Sequence (P00519 whole entry): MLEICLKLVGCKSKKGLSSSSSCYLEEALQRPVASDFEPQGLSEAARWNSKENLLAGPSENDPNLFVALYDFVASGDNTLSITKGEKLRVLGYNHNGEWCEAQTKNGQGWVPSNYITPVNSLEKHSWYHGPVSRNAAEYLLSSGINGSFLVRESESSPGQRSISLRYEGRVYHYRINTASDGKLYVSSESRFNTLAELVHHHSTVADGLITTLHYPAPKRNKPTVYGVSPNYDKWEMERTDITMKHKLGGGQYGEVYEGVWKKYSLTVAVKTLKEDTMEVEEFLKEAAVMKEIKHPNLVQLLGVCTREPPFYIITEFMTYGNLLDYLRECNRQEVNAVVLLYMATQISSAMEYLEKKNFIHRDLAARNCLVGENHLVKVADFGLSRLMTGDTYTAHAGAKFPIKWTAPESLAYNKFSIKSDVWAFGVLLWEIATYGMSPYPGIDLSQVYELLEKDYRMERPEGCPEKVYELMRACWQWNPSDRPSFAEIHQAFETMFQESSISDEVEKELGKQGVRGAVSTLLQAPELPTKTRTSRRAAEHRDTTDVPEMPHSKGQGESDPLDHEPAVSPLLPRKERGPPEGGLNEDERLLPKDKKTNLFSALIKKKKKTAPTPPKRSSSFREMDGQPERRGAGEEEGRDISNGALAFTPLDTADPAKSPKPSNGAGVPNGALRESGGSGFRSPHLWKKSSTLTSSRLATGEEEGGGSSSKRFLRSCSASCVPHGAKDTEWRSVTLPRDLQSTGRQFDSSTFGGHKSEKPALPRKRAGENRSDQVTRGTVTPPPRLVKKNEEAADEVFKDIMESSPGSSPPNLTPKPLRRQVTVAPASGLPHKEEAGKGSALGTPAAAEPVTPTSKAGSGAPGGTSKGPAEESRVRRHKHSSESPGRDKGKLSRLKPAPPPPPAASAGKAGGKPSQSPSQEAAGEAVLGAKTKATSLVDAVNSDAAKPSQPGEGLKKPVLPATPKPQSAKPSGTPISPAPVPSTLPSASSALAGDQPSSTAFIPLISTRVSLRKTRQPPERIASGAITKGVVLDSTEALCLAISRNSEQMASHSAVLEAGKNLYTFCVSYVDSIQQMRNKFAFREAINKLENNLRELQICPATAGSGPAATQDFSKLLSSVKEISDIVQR
Settings: Compound concentration 20.0 uM, Protein concentration 2.0 uM, Result type QC Liability
Description: Thermal Shift Assay. Domain: start/stop: S229-K512

Some molecules with recorded ΔTm:
Query smiles: O=C(O)C[C@H]1CC[C@H](c2ccc(NC(=O)c3nnc(Nc4ccc(F)c(F)c4)o3)cc2)CC1
ΔTm: -0.04 °C
//
Query smiles: CC(=O)N1CCC(c2ccc(C(=O)NC(=N)N)cc2C(F)(F)F)CC1
ΔTm: -0.81 °C
//
Query smiles: C[C@H]1CN(C2COC2)CCN1c1ccc(Nc2cc(-c3ccnc(N4CCn5c(cc6c5CC(C)(C)C6)C4=O)c3CO)cn(C)c2=O)nc1
ΔTm: 3.14 °C

Which ΔTm is listed for CN1C(=O)Cc2ccc(-c3ccc(C[C@@H](C#N)NC(=O)[C@H]4N[C@@H]5CC[C@H]4C5)c(F)c3)cc21 ?
0.24 °C

For Cc1cnc(Nc2ccc(C(=O)N3CCN(C)CC3)cc2)nc1N[C@@H]1CCC[C@@H]1C(N)=O , what is its reported ΔTm?
5.89 °C

Recorded ΔTm of CC[C@H](Nc1c(C#N)c(-c2ccc(-c3cccc(C)c3F)cc2)nc2cnccc12)C(=O)O , please.
1.4 °C

###

Target: Cyclin-dependent kinase 2 (Homo sapiens)
Conditions: Compound concentration 20.0 uM, Protein concentration 2.0 uM, Result type QC Liability
Description: Thermal Shift Assay. Domain: start/stop: M1-L298
Attribute: ΔTm
Enter your answer as a number in °C; do not include the unit.

Compound: NC1(c2ccc(-c3nc4c(O)ccnn4c3-c3ccccc3)cc2)CCC1
Unit label: °C
ΔTm: -0.34
//
Compound: COc1cc(-c2cncc(-c3ccc(N4CCN(C(C)C)CC4)cc3)c2C)cc(F)c1C(N)=O
Unit label: °C
ΔTm: 0.61
//
Compound: Fc1ccc(-c2nc(-c3c(F)cccc3F)[nH]c2-c2ccncc2)cc1
Unit label: °C
ΔTm: 1.7

Which ΔTm is reported with Cyclin-dependent kinase 2 (Homo sapiens) for this entry: Cc1ncsc1-c1ccc(CNC(=O)[C@@H]2C[C@H](O)CN2C(=O)[C@@H](NC(=O)C2(F)CC2)C(C)(C)C)c(OCCOc2ccc(CN3CCN(c4cc(-c5ccccc5O)nnc4N)CC3)cc2)c1 (relative stereo) ?
2.76

Provide the documented ΔTm with Cyclin-dependent kinase 2 (Homo sapiens) as the system for CN(C(=O)c1cnn2cccnc12)c1cc2c(cc1N1CCOCC1)C(=O)N(C[C@@H](F)C(C)(C)O)C2
-0.41

Give recorded ΔTm with Cyclin-dependent kinase 2 (Homo sapiens) for the following compound: COC(=O)c1ccc2c(c1)NC(=O)/C2=C(\Nc1ccc(-c2nccn2C)cc1)c1ccccc1
0.27

Item: C/C=C1\C(=O)CC2C3CCC4=CC(=O)CC[C@]4(C)C3CC[C@]12C (some centres undefined) Test system: Cyclin-dependent kinase 2 (Homo sapiens) Read-out: ΔTm Value: ?
-0.3

Lab note: need ΔTm for CC(C(=O)Nc1cc(C#N)ccc1CCCC(=O)O)c1ccc(F)c2ccccc12 (centres undefined) on Cyclin-dependent kinase 2 (Homo sapiens), anyone have it?
0.61

# returns recorded ΔTm (system: Cyclin-dependent kinase 2 (Homo sapiens)) for Cn1ccc(Cn2cnc(-c3ccc(F)cc3)c2-c2ccnc3[nH]ccc23)n1
0.42
